pIC50 listing for selected compounds.
# target_under_test: recombinant PIM-1 (Homo sapiens, UniProt P11309)
# Sequence (P11309 whole entry): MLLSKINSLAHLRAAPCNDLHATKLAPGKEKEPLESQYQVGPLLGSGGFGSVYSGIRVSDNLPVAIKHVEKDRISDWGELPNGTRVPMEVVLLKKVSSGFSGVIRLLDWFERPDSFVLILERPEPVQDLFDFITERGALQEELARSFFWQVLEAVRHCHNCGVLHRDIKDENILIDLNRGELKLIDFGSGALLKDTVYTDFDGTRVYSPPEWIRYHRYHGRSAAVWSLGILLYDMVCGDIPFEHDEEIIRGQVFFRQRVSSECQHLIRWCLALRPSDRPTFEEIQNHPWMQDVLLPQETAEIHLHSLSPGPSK
# method: PIM-1 assay (33P-ATP filter plate)
# Type: biochemical
# applied_conditions: Table 2; read-out: PIM1: IC50
Worth noting: pIC50 values are minus log10 of concentrations stated in mol/L.

CN1CCCN(C(=O)c2cccc(-c3ccc(/C=C4/SC(=O)NC4=O)o3)c2)CC1	6.95
CN1CCCN(C(=O)c2ccc(-c3ccc(/C=C4/SC(=O)NC4=O)o3)cc2)CC1	6.58
O=C1NC(=O)/C(=C\c2ccc(-c3ccc(C(=O)O)cc3)o2)S1	7.39

// switching to the query compound
Item under review: `NS(=O)(=O)c1ccc(-c2ccc(/C=C3\SC(=O)NC3=O)o2)cc1` . Reported pIC50? 7.29

---

log10 of IC50 listing for selected molecules.
# Test system: BxPC3
# method: Alamar Blue cell proliferation assay, BxPC3
# Type: cell-based
# applied_conditions: Homo sapiens, BXPC-3, BxPC3, Table 5, read-out: AB: BxPC3 IC50
Annotation: log10 of IC50, µM basis.

Cc1ccc(-c2cncc(N3CCCN(C)CC3)n2)cc1/C=C1\SC(=O)NC1=O	1.41

Item under review: `O=C1NC(=O)/C(=C\c2ccc(F)c(-c3cncc(N4CCCN(C(=O)Nc5ccccc5)CC4)n3)c2)S1` . Reported log10 of IC50? 1.27

Item under review: `O=C1NC(=O)/C(=C\c2ccc(F)c(-c3cncc(N4CCCN(C(=O)OCc5ccccc5)CC4)n3)c2)S1` . Reported log10 of IC50? 1.40

Item under review: `O=C1NC(=O)/C(=C\c2ccc(F)c(-c3cncc(N4CCCNCC4)n3)c2)S1` . Reported log10 of IC50? 0.64

Item under review: `CN1CCCN(c2cncc(-c3cc(/C=C4\SC(=S)NC4=O)ccc3F)n2)CC1` . Reported log10 of IC50? 0.38

Item under review: `CC(C)(C)C(=O)N1CCCN(c2cncc(-c3cc(/C=C4/SC(=O)NC4=O)ccc3F)n2)CC1` . Reported log10 of IC50? 1.10

Item under review: `O=C1NC(=O)/C(=C\c2ccc(F)c(-c3cncc(N4CCCN(C(=O)Oc5ccccc5)CC4)n3)c2)S1` . Reported log10 of IC50? 1.38

Item under review: `O=C1NC(=O)/C(=C\c2ccc(F)c(-c3cncc(N4CCCN(C(=O)C5CC5)CC4)n3)c2)S1` . Reported log10 of IC50? 1.36

Item under review: `CCOC(=O)N1CCCN(c2cncc(-c3cc(/C=C4/SC(=O)NC4=O)ccc3F)n2)CC1` . Reported log10 of IC50? 1.36

---

# target_under_test: recombinant human CK2 (Homo sapiens, UniProt P68400)
# Construct: purchased Upstate
# Sequence (P68400 whole entry): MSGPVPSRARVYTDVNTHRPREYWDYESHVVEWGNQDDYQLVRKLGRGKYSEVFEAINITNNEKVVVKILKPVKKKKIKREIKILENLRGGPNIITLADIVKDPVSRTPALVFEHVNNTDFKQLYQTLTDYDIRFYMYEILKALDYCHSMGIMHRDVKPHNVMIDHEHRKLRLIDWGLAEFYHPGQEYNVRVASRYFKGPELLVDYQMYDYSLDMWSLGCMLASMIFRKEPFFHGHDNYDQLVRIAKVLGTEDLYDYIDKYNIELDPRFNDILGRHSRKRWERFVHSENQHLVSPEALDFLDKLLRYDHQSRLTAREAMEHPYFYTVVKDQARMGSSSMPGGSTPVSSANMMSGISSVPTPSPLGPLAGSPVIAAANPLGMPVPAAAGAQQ
# Sequence (P67870 whole entry partner): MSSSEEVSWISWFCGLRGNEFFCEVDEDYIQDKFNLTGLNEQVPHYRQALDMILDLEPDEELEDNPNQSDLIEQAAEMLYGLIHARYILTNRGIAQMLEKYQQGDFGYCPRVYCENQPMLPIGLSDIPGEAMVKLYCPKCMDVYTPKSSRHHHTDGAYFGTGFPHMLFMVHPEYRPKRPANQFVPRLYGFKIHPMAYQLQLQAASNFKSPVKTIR
# method: CK2 assay (cell-free, 33P-ATP filter plate)
# Assay type: biochemical
# applied_conditions: Table 6
IC50 listing for selected compounds.
Give just the numeric value; nM need not be written.

COc1ccc(/C=C2\SC(=O)NC2=O)cc1-c1cncc(N2CCCNCC2)n1	472
C[C@H](Nc1cncc(-c2cccc(/C=C3\SC(=O)NC3=O)c2)n1)C1CC1	1.44
C[C@H](Nc1cncc(-c2csc(/C=C3\SC(=O)NC3=O)c2)n1)C1CC1	24

Item under review: `O=C1NC(=O)/C(=C/c2cc(-c3cncc(N4CCCNCC4)n3)cs2)S1` . Reported IC50? 4.39
